half-life values for the compounds below.
# experiment.notes: clinical
# run.parameters: human, in vivo, iv, t1/2
# value in h; strip the unit string

Solved entries (count: 8):
compound=Oc1ccc2c(c1)[C@@]13CCCC[C@@]1(O)[C@@H](C2)N(CC1CCC1)CC3 result=4.8
compound="CCC(C)(C)NCC(O)COc1ccccc1C(=O)CCc1ccccc1 (centres undefined)" result=1.5
compound=O=P(O)(O)OC(Cn1cncn1)(Cn1cncn1)c1ccc(F)cc1F result=2.1
compound=COc1ccc2c3c1O[C@H]1C(=O)CC[C@@]4(O)[C@@H](C2)N(C)CC[C@]314 result=5.5
compound=CC1(C)C(/C=C/C=C/C=C/C=C2/N(CCCCS(=O)(=O)[O-])c3ccc4ccccc4c3C2(C)C)=[N+](CCCCS(=O)(=O)[O-])c2ccc3ccccc3c21.[Na+] result=0.065
compound=CNCC[C@@H](Oc1ccccc1C)c1ccccc1 result=5.2
compound="CCCCCCCN(CC)CCCC(O)c1ccc(NS(C)(=O)=O)cc1 (centres undefined) [IBUTILIDE]" result=7
compound=CCO[C@@H](Cc1ccc(OCCc2ccc(OS(C)(=O)=O)cc2)cc1)C(=O)O result=45

// recorded half-life for Cc1cc(NC(=O)C2=C(O)c3ccccc3S(=O)(=O)N2C)no1 : 33

// recorded half-life for CCCC1C(=O)N2C(N(C)C)=Nc3ccc(C)cc3N2C1=O (centres undefined) : 17

// recorded half-life for C[C@H]1[C@H](OC(=O)CCC(=O)O)O[C@@H]2O[C@@]3(C)CC[C@H]4[C@H](C)CC[C@@H]1[C@@]24OO3 [ARTESUNATE] : 0.22

// recorded half-life for C[C@@H]1C(=O)O[C@H]2[C@H](O)[C@@]34[C@H]5C[C@@H](C(C)(C)C)[C@]36[C@@H](OC(=O)[C@@H]6O)O[C@@]4(C(=O)O5)[C@@]12O [GINKOLIDE B] : 5.2

// recorded half-life for CCC1(c2cccc(O)c2)CCCCN(C)C1 (centres undefined) : 1.7

// recorded half-life for C[C@]12C=CC(=O)C=C1CC[C@@H]1[C@@H]2C(=O)C[C@@]2(C)[C@H]1CC[C@]2(O)C(=O)CO : 2.9

// recorded half-life for COc1ccc(Cl)cc1C(=O)NCCc1ccc(S(=O)(=O)NC(=O)NC2CCCCC2)cc1 [GLYBURIDE] : 2.2

// recorded half-life for C[N+](C)([O-])CCCN1c2ccccc2CCc2ccccc21 [IMIPRAMINOXIDE] : 1.8

// recorded half-life for Fc1ccc([C@@H]2CCNC[C@H]2COc2ccc3c(c2)OCO3)cc1 : 13
